Protocol description: protein stability index of a GFP-peptide fusion (yeast GPS) (PSI 1-4); higher = more stable; sorted into four equal gates, so the index is relative within each strain
Condition details: ubr1∆
Quantity measured: protein stability index
I only need the number, thanks.

Use these answered entries as a reference point.
Residues | protein stability index
ANNNMNDELVELLANKC [GRR1] | 2.99
QTTEGYDPKDALKNACN [RPB11] | 3.35
LTVAMYINSDSVNPAML [RPO31] | 2.68
AIKKSSMKMELLKKELL [SMC2] | 2.13
LERYVKRCMDDLNPLKT [RPO31] | 3.16
TAFKATVFFLIRVAETR [YJL039C/NUP192] | 1.47
KVAEVKKLEGTIEYQKL [RPT4] | 3.57
VCIRPSVMMQDSPASNE [RPO31] | 2.06

# protein stability index lookup, item TNSTYNPASATDNMSGR [YJL039C/NUP192]
2.56

For QEAVNSLKGYKIENSVQ [CSI1] , what is its reported protein stability index?
3.39

Form field: reported protein stability index of PSKDSFTKYKPARSSSL [YAR002W/NUP60]
2.77

Bench note: what protein stability index did NSMDISMFSGLDSTGFD [MED2] show?
2.83

Entry INCNKETIENVKLQMIK [ECM29] has what protein stability index?
3.4

Consider the sequence shown here: KAPLQPNSERETDHANT [IRR1] What is its recorded protein stability index?
2.88

Suppose we examine the sequence LKNYVLNELHPTLPTNH [PRP8] ; what protein stability index value has been reported?
2.67

Entry under review: TSPQYIPSPLSSTKPPG [NUT1] . Reported protein stability index?
2.45

----------
Protocol description: protein stability index of a GFP-peptide fusion (yeast GPS) (PSI 1-4); higher = more stable; sorted into four equal gates, so the index is relative within each strain
Condition details: pdr5∆
protein stability index of 3 or higher: y. Under 3: n.

Residues | Label
PNLIEKMVAKGLNDLVE [BRR2] | n

We now examine a further sequence.
Please indicate if the recorded protein stability index for ASLKKMEETEQKKIQIN [SMC3] meets or exceeds 3.
n

----------
// values below are reported protein stability index
Protocol description: protein stability index of a GFP-peptide fusion (yeast GPS) (PSI 1-4); higher = more stable; sorted into four equal gates, so the index is relative within each strain
Condition details: doa10∆
Reply with just the number.

Residues | Result number
NTEKDYKMVQEQLSKQR [SMC2] | 3.27
SLQDSIIKQENFNSVND [SSN2] | 2.4
THAQRTGLSQIPNRRFT [PRP8] | 2.8
VAAAGITASTLLYADSL [CYT1] | 1.89
DTLDPALLRPGRLDRKV [RPT4] | 3.02
PLELSAPIGKHYVVLDT [DIS3] | 2.83

Quick check: protein stability index of TRQSSRNFDTHENYIQD [MCD1] ?
2.92

----------
# protein stability index listing for each entry below
Protocol description: protein stability index of a GFP-peptide fusion (yeast GPS) (PSI 1-4); higher = more stable; sorted into four equal gates, so the index is relative within each strain
Condition details: pdr5∆

Recorded results for 4 sequences are shown here.
Residues | Result
MKMDKSPTESYSDIGGL [RPT2] | 3.4
NFGNNGAGGLNPFTSAT [YOR098C/NUP1] | 3.21
TISILAAPSGNYKQLTL [RRP43] | 1.94
FVDLNEKELQNEIKQLG [SRB4] | 2.41

Item HPAHVMWSVARAGQRGY [RPL3] has what recorded protein stability index?
1.83

What protein stability index value was documented for this sequence, LLIISCIIFITFEFINI [YML031W/NDC1] ?
1.43

Record request: protein stability index value, item SHFDYNTLEFIIEQLSI [YCG1]
2.62

// returns reported protein stability index for input ISYKKGAASNRTKFVRS [RPL36A]
3.2

Give the measured protein stability index of KHGAVHMSTYLKIYKVG [RPL21B] .
1.52

Which protein stability index value belongs to KDFVTMAIEIINDIRDD [YCG1] ?
1.7

// returns reported protein stability index for input AAQAQAQAQAQAQAQAQ [GAL11]
2.9

protein stability index lookup needed for VVDGTVVSCSQHGFEVQ [RPB7] , thanks.
3.11

Can you look up the measured protein stability index of NTLEEFEHGRTPAEMSR [FAS2] for me?
3.09

Could you share which protein stability index value was measured for LQPFYSQPTAAGGPDMT [DSN1] ?
1.51
